Source: patent US9981942B2

- EXPERIMENTAL_TARGET: σ1 receptor and the μ-opiod receptor
- METHOD_NOTES: μ and σ1 dual binding: combined class from the Ki of both radioligand assays
- Design: species or system human
- CONDITIONS: transfected HEK-293 membranes (σ1), transfected CHO-K1 cell membranes (μ)
RESULT_TYPE: Ki range for both μ and σ1 (dual-binding class)

CC(C)S(=O)(=O)Nc1cccc(C2CCN(Cc3cnn(Cc4cccc(F)n4)c3)CC2)c1; < 100 nM

Input: Entry Oc1cccc(C2CCN(Cc3cn(-c4ccccc4)nn3)CC2)c1 has what Ki range for both μ and σ1 (dual-binding class)?
Output: < 100 nM

Input: Moving on to Oc1cccc(C2CCN(Cc3cn(C4CCc5ccccc54)nn3)CC2)c1 (stereo not shown)
Output: < 100 nM

###

- EXPERIMENTAL_TARGET: σ1 receptor and the μ-opiod receptor
- METHOD_NOTES: μ and σ1 dual binding: combined class from the Ki of both radioligand assays
- Set-up: species or system human
- CONDITIONS: transfected HEK-293 membranes (σ1), transfected CHO-K1 cell membranes (μ)
Reported values of Ki range for both μ and σ1 (dual-binding class) for individual entries

Consider the following illustrative entries.
Cc1ccc(C2CCN(Cc3cn(-c4ccccc4)nn3)CC2)cc1O; < 0.1 µM
Oc1cccc(C2CCN(Cc3cn([C@@H]4Cc5ccccc5[C@@H]4O)nn3)CC2)c1; < 0.5 µM
CS(=O)(=O)c1cccc(C2CCN(Cc3cn(-c4ccccc4)nn3)CC2)c1; < 0.5 µM
OC[C@@H](c1ccccc1)n1cc(CN2CCC(c3cccc(O)c3)CC2)nn1 (stereo in doubt); < 0.5 µM
CC(C)NC(=O)c1cccc(C2CCN(Cc3cn(Cc4ccccc4)nn3)CC2)c1; ≥ 0.5 µM

Input: Entry CCC(=O)Nc1cncc(C2CCN(Cc3cn(-c4ccccc4)nn3)CC2)c1 has what Ki range for both μ and σ1 (dual-binding class)?
Output: ≥ 0.5 µM

Input: Moving on to CCC(=O)Nc1cc(C2CCN(Cc3cn(-c4ccccc4)nn3)CC2)ccn1
Output: ≥ 0.5 µM

###

- EXPERIMENTAL_TARGET: σ1 receptor and the μ-opiod receptor
- METHOD_NOTES: μ and σ1 dual binding: combined class from the Ki of both radioligand assays
- Set-up: species or system human
- CONDITIONS: transfected HEK-293 membranes (σ1), transfected CHO-K1 cell membranes (μ)
Reported values of Ki range for both μ and σ1 (dual-binding class) for individual entries

Consider the following illustrative entries.
Oc1ccc(-n2cc(CN3CCC(c4cccc(O)c4)CC3)nn2)cc1; < 100 nM
CC(C)S(=O)(=O)Nc1cccc(C2CCN(Cc3cn(-c4ccccc4F)nn3)CC2)n1; < 500 nM

Okay, next one:
Input: What measured Ki range for both μ and σ1 (dual-binding class) is associated with Oc1cccc(C2CCN(Cc3cn(-c4ccc(Cl)c(Cl)c4)nn3)CC2)c1 on σ1 receptor and the μ-opiod receptor?
Output: < 100 nM
